- System: NCI-H2087
- ASSAY TEXT: relative viability (nuclei count vs DMSO), 5 days (fraction); higher = more cells survive
- SETTINGS: first compound 0.8 µM

COMPOUND	relative viability
C=C1C(=O)O[C@@H](CCCCCCCC)[C@@H]1C(=O)O [C-75] + Nc1ncn([C@H]2C[C@H](O)[C@@H](CO)O2)c(=O)n1 [Decitabine] (partner 2 µM)	0.35
Oc1nc(-c2ccc(C(F)(F)F)cc2)nc2c1CSCC2 [XAV939] + O=C(c1cc(Cc2n[nH]c(=O)c3ccccc23)ccc1F)N1CCN(C(=O)C2CC2)CC1 [Olaparib] (partner 8 µM)	0.665
C=C1C(=O)O[C@@H](CCCCCCCC)[C@@H]1C(=O)O [C-75] + Nc1nc2[nH]cc(CCc3ccc(C(=O)N[C@@H](CCC(=O)O)C(=O)O)cc3)c2c(=O)[nH]1 [Pemetrexed] (partner 0.2 µM)	0.616
Oc1nc(-c2ccc(C(F)(F)F)cc2)nc2c1CSCC2 [XAV939] + NC(=O)Nc1cc(-c2cccc(F)c2)sc1C(=O)N[C@H]1CCCNC1 [AZD7762] (partner 0.2 µM)	1.22
Oc1nc(-c2ccc(C(F)(F)F)cc2)nc2c1CSCC2 [XAV939] + C[C@@H](Oc1cc(-c2cnn(C3CCNCC3)c2)cnc1N)c1c(Cl)ccc(F)c1Cl [Crizotinib] (partner 1 µM)	0.715
C=C1C(=O)O[C@@H](CCCCCCCC)[C@@H]1C(=O)O [C-75] + Cc1nc(NC(=O)N2CCC[C@H]2C(N)=O)sc1-c1ccnc(C(C)(C)C(F)(F)F)c1 [Alpelisib] (partner 2 µM)	1.02
Oc1nc(-c2ccc(C(F)(F)F)cc2)nc2c1CSCC2 [XAV939] + Cc1nc(NC(=O)N2CCC[C@H]2C(N)=O)sc1-c1ccnc(C(C)(C)C(F)(F)F)c1 [Alpelisib] (partner 2 µM)	1.09

----------
- Test system: ABC-1
- ASSAY TEXT: relative viability (nuclei count vs DMSO), 5 days (fraction); higher = more cells survive
- SETTINGS: first compound 0.5 µM

MOLECULE	SYSTEM TESTED	relative viability
CC1(C)CCC(c2ccc(Cl)cc2)=C(CN2CCN(c3ccc(C(=O)NS(=O)(=O)c4ccc(N[C@H](CCN5CCOCC5)CSc5ccccc5)c(S(=O)(=O)C(F)(F)F)c4)cc3)CC2)C1 [Navitoclax] + O=C(CCCCCCC(=O)Nc1ccccc1)NO [Vorinostat] (partner 1 µM)	ABC-1	1.04
CC1(C)CCC(c2ccc(Cl)cc2)=C(CN2CCN(c3ccc(C(=O)NS(=O)(=O)c4ccc(N[C@H](CCN5CCOCC5)CSc5ccccc5)c(S(=O)(=O)C(F)(F)F)c4)cc3)CC2)C1 [Navitoclax] + Cc1nc(NC(=O)N2CCC[C@H]2C(N)=O)sc1-c1ccnc(C(C)(C)C(F)(F)F)c1 [Alpelisib] (partner 2 µM)	ABC-1	1.01
CC1(C)CCC(c2ccc(Cl)cc2)=C(CN2CCN(c3ccc(C(=O)NS(=O)(=O)c4ccc(N[C@H](CCN5CCOCC5)CSc5ccccc5)c(S(=O)(=O)C(F)(F)F)c4)cc3)CC2)C1 [Navitoclax] + NC(=O)Nc1cc(-c2cccc(F)c2)sc1C(=O)N[C@H]1CCCNC1 [AZD7762] (partner 0.2 µM)	ABC-1	0.72
CC1(C)CCC(c2ccc(Cl)cc2)=C(CN2CCN(c3ccc(C(=O)NS(=O)(=O)c4ccc(N[C@H](CCN5CCOCC5)CSc5ccccc5)c(S(=O)(=O)C(F)(F)F)c4)cc3)CC2)C1 [Navitoclax] + C[C@]1(O)C[C@@H](c2nc(-c3ccc4ccc(-c5ccccc5)nc4c3)c3c(N)nccn32)C1 [Linsitinib] (partner 1 µM)	ABC-1	0.708
CC1(C)CCC(c2ccc(Cl)cc2)=C(CN2CCN(c3ccc(C(=O)NS(=O)(=O)c4ccc(N[C@H](CCN5CCOCC5)CSc5ccccc5)c(S(=O)(=O)C(F)(F)F)c4)cc3)CC2)C1 [Navitoclax] + COc1cc2c(Oc3ccc(NC(=O)C4(C(=O)Nc5ccc(F)cc5)CC4)cc3F)ccnc2cc1OCCCN1CCOCC1 [Foretinib] (partner 0.25 µM)	ABC-1	1.05
CC1(C)CCC(c2ccc(Cl)cc2)=C(CN2CCN(c3ccc(C(=O)NS(=O)(=O)c4ccc(N[C@H](CCN5CCOCC5)CSc5ccccc5)c(S(=O)(=O)C(F)(F)F)c4)cc3)CC2)C1 [Navitoclax] + COc1cccc2cc(-c3nc([C@H]4CC[C@H](C(=O)O)CC4)n4ncnc(N)c34)[nH]c12 [OSI-027] (partner 0.5 µM)	ABC-1	0.356

Data provenance: the supplement of paper PMC10307832
